Overview of reported glutamate uptake change across a group of compounds:
test-name: glutamate transport activators, MN-1 cells, MN-1 cell line (AID 1612);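 note: 0% = mean of DMSO vehicle wells on each plate; positive means more glutamate uptake than control and negative means less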
test-parameters: MN-1 motor neuron cells, stronger effect = higher value
Enter your answer as a number in %; do not include the unit.

Cc1cc(C2CCCCC2)n(O)c(=O)c1
-12
CN(C)CCC=C1c2ccccc2C=Cc2ccccc21
-6.52
NC(=NCCCCCCN=C(N)/N=C(\N)Nc1ccc(Cl)cc1)/N=C(\N)Nc1ccc(Cl)cc1
-13.4
CC[C@]12CCCN3CCc4c(n(c5ccccc45)C(=O)C1)[C@@H]32
-6.74
CC(=O)NS(=O)(=O)c1ccc(N)cc1
16.9

## Input Name the recorded glutamate uptake change of the compound listed here: "Nc1ccc(N=Nc2ccccc2)c(N)n1"
## Output -9.75

## Input Output glutamate uptake change of "CO[C@]12C[C@@H](COC(=O)c3cncc(Br)c3)CN(C)[C@@H]1Cc1cn(C)c3cccc2c13"
## Output 6.29

## Input Give recorded glutamate uptake change. "Cc1cc2cc3c(C)cc(=O)oc3c(C)c2o1"
## Output -15.5

## Input Specify measured glutamate uptake change for "CCn1cc(C(=O)O)c(=O)c2cnc(N3CCCC3)nc21" .
## Output -9.95

## Input Could you please provide reported glutamate uptake change for "CC(=O)OCC1=C(C(=O)O)N2C(=O)[C@@H](NC(=O)CSc3ccncc3)[C@H]2SC1" ? Thanks!
## Output -2.14

## Input Please look at this compound and report its glutamate uptake change: "Oc1c(Br)cc(Br)c2cccnc12"
## Output 4.76

## Input Give glutamate uptake change for "NC[C@H](O)c1ccc(O)c(O)c1"
## Output 21.3

----------
test-name: GLP1 release stimulators, primary, NCI-H716, NPC library (AID 1117341)
test-parameters: NCI-H716 cells, at 10 µM, stronger effect = higher value
reported-endpoint: GLP1 secretion stimulation (%)
Value expressed in %; do not type the unit.

Recorded results for 5 compounds are shown here.
CC(=O)OC/C=C(C)/C=C/C=C(C)/C=C/C1=C(C)CCCC1(C)C
5.9
CN(C)c1ccc(C(=C2C=CC(=[N+](C)C)C=C2)c2ccc(N(C)C)cc2)cc1
-16
CCOc1cc(CC(=O)N[C@@H](CC(C)C)c2ccccc2N2CCCCC2)ccc1C(=O)O
0.5
O=C(O)c1ccccc1Nc1cccc(C(F)(F)F)c1
9.5
NC(CS)C(=O)O (configuration not stated)
-1.7

## Input Consider the compound "COc1cc(C(=O)OCCCN2CCCN(CCCOC(=O)c3cc(OC)c(OC)c(OC)c3)CC2)cc(OC)c1OC" and give its recorded GLP1 secretion stimulation.
## Output 7.5

## Input Retrieve GLP1 secretion stimulation measured for "Cc1c[nH]c2ccccc12" and print it.
## Output -1.7

----------
test-name: HCT116 colon cancer cell growth inhibition, primary screen, CellTiter-Glo luminescence, NPC library (AID 1117342)
test-parameters: at 20 µM (top of the series)
Activity calls are given as the source filed them.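 How the source made its calls: active means compounds that lower survival of HCT116 colon cancer cells in the luminescence readout, no numeric limit stated; inactive means the rest.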
reported-endpoint: inhibition of viability

Cc1c(N(C)C)c(=O)n(-c2ccccc2)n1C
-13.5% (inactive)
CC1CCN(CCCC(=O)c2ccc(F)cc2)CC1
45.7% (inactive)
COc1ccc(CN2CCN(C(c3ccc(F)cc3)c3ccc(F)cc3)CC2)c(OC)c1OC
110% (active)
CCCOc1ccccc1-c1nc2n[nH]nc2c(=O)[nH]1
17.5% (inactive)

With those in mind, consider the next molecule.
## Input Fill in reported inhibition of viability for this entry: "CC(=O)OCC(=O)[C@H]1CC[C@H]2[C@@H]3CCC4=CC(=O)CC[C@]4(C)[C@H]3CC[C@]12C"
## Output 34.5% (inactive)

----------
test-name: NPC library primary testing for decreased DLD-1 cell viability via CellTiter-Glo (AID 1117346)
test-parameters: DLD-1 viability, CellTiter-Glo luminescence; at 20 µM (top of the series)
reported-endpoint: viability decrease (inhibition) (%)
I only need the number, in %, no unit after it.

Worked cases, answers included:
O=NN(CCCl)C(=O)NC1CCCCC1
3.5
COc1cc(/C=C/C(=O)CC(=O)/C=C/c2ccc(O)c(OC)c2)ccc1O
-7.3
NCC1CCC(C(=O)O)CC1 (stereo unspecified)
-6
Cc1cc(N)c2ccccc2[n+]1CCCCCCCCCC[n+]1c(C)cc(N)c2ccccc21
85.1
CCOC(=O)O[C@]1(C(=O)OCCl)CC[C@H]2[C@@H]3CCC4=CC(=O)C=C[C@]4(C)[C@H]3[C@@H](O)C[C@@]21C
21.9

Proceeding to the next compound to report its viability decrease (inhibition).
## Input Using the record for CCn1cc(C(=O)O)c(=O)c2cc(F)c(N3CCNC(C)C3)c(F)c21 (stereo unspecified) , state its measured viability decrease (inhibition).
## Output -20.1

----------
test-name: growth inhibition of GSK3B-pretreated HCT116 cells – cell-based, CellTiter-Glo, 0.2 to 20 µM (AID 1117336)
test-parameters: HCT116 viability after GSK3B inhibitor, at 20 µM
Activity calls are given as the source filed them.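 Rule for the calls: active = compounds lowering colon cancer cell viability after pretreatment blocking the GSK3B kinase; inactive = the rest.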
The categories you may choose from are active, inactive

CC(CN(C)C)CN1c2ccccc2CCc2ccccc21 (stereo unspecified)
inactive
C=CCc1ccccc1OCC(O)CNC(C)C (stereo unspecified)
inactive
COc1cc(C(=O)NCc2ccc(OCCN(C)C)cc2)cc(OC)c1OC
inactive
COc1cc(OC)cc(OC)c1
inactive
CO[C@@]1(NC(=O)CSCC#N)C(=O)N2C(C(=O)O)=C(CSc3nnnn3C)CS[C@@H]21
inactive
CCN(CC)Cc1cc(Nc2ccnc3cc(Cl)ccc23)ccc1O
active
Cc1cc(N)c2ccccc2[n+]1CCCCCCCCCC[n+]1c(C)cc(N)c2ccccc21
active
CCN(CC)CCNC(=O)c1cc(Br)c(N)cc1OC
inactive

## Input Could you please tell me the result logged for "Cc1cc(O)cc(C)c1Cl" in this assay?
## Output inactive

## Input Query: recorded result category for "CC(=O)OCC1=C(C(=O)O)N2C(=O)[C@@H](NC(=O)CSc3ccncc3)[C@H]2SC1" in this test
## Output inactive

## Input Called result for "CCN(CCCc1ccccc1)CCCc1ccccc1"
## Output inactive

## Input Record lookup: outcome of this test for "CCCc1cc(C(N)=S)ccn1" ?
## Output inactive

## Input State the result this test recorded for "CC(C)(Oc1ccc(Cl)cc1)C(=O)O" .
## Output inactive

----------
test-name: EMT-state selective cytotoxicity in co-culture – imaging, PC-3E GFP, TEM4-18 mCherry, primary screen (AID 1345086);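 note: cells exposed to compound for 72 h before imaging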
test-parameters: PC-3E GFP / TEM4-18 mCherry co-culture, imaging cell counts; measured here: epithelial PC-3E GFP cell survival; at 1 µM
Each item that follows carries a reported normalised cell number.
Please give the numeric answer without any surrounding text.

The examples below pair each entry with its known result.
NC(=O)c1ccc([N+](=O)[O-])cc1Cl
0.87
Oc1c(Cl)cc(Cl)cc1Sc1cc(Cl)cc(Cl)c1O
1.15

## Input For the compound "COc1ccc(CN2CCN(C(c3ccc(F)cc3)c3ccc(F)cc3)CC2)c(OC)c1OC" , give its reported normalised cell number.
## Output 0.96

## Input State its normalised cell number for this compound: "CN1CCC(=C2c3ccccc3CCc3sccc32)CC1"
## Output 1.11

## Input Give the measured normalised cell number for "COCCCOc1cc(C[C@@H](C[C@H](N)[C@@H](O)C[C@H](C(=O)NCC(C)(C)C(N)=O)C(C)C)C(C)C)ccc1OC"
## Output 0.98

----------
System: R275C/beta4
test-name: BK channel mutant inhibitors and activators – cell-based, U2OS BacMam, thallium flux, beta subunits, selectivity assay, profiling panel (AID 1259406);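 note: initial slope of Thallos dye fluorescence rise after thallium is added; log ratio against the mean of 0.3% DMSO vehicle wells on the same plate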
test-parameters: U2OS BacMam BK variants, at 30 µM
reported-endpoint: log fold change Tl+ flux
The response must contain the number and no unit.

For orientation, consider the following solved cases.
CC(Cc1ccccc1)(NC(=O)CN)c1ccccc1 (configuration not stated)
0.0184
CN1CCN(C2=Nc3cc(F)ccc3Cc3ccccc32)CC1
0.0369
NC1CCN(c2nc3c(cc2F)c(=O)c(C(=O)O)cn3-c2ccc(F)cc2F)C1 (configuration not stated)
-0.0109
CCN1CCN(c2cc3c(cc2F)c(=O)c(C(=O)O)cn3C2CC2)CC1
0.0288
O=C(CCNNC(=O)c1ccncc1)NCc1ccccc1
0.0195

## Input Consider the compound "COc1cc(C)c(Cc2cnc(N)nc2N)cc1OC" and give its recorded log fold change Tl+ flux.
## Output 0.00157

## Input Report log fold change Tl+ flux, nothing else, for this compound: "CCCN1CCCC[C@H]1C(=O)Nc1c(C)cccc1C"
## Output 0.0113

----------
target-under-test: ATP-dependent translocase ABCB1 (Homo sapiens) (UniProt P08183)
Sequence (P08183 whole entry, looked up): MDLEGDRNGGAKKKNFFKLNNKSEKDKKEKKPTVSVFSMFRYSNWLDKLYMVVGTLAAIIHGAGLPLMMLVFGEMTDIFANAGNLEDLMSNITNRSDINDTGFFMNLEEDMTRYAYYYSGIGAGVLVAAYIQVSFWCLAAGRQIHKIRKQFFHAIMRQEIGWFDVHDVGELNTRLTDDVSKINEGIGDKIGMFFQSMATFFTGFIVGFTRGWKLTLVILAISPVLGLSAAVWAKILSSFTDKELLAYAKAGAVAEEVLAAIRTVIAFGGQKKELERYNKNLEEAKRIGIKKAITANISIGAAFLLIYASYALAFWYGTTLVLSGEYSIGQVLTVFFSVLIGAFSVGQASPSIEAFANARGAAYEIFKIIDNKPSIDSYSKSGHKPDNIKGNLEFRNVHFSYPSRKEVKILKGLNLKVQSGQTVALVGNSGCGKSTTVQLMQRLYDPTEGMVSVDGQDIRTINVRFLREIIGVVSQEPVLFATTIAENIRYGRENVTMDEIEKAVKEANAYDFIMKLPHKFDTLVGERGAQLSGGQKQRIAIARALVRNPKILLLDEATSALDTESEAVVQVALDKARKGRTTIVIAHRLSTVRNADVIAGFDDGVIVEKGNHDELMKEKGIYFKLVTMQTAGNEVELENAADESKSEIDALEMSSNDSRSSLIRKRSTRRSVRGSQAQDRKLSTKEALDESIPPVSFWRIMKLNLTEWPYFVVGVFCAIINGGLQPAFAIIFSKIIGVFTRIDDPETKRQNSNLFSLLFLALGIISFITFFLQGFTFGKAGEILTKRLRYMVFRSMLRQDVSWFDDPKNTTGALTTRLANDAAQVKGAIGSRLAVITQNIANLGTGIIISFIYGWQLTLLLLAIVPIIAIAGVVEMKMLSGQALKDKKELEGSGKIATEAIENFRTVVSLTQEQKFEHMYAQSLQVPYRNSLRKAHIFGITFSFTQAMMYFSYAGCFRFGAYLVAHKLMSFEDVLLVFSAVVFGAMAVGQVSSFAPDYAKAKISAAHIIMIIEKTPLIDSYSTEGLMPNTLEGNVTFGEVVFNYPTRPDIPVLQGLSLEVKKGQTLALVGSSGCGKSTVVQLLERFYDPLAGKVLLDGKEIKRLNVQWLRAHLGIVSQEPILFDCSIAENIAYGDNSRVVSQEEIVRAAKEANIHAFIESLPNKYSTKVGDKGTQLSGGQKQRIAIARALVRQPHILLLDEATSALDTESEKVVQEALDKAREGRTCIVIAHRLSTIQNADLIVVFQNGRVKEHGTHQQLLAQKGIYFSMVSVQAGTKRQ
test-name: P-glycoprotein substrate transport blockade – cell-based (AID 377)
test-parameters: MDR1-expressing cells, fluorescent substrate accumulation slope; concentration not given here
Results filed as inconclusive are left out. Activity calls are given as the source filed them. No stated cut-off is given here; in the data, active means fluorescence slope change above about 50%; inconclusive means mostly about 31% to 49%; inactive means weaker than that.
Select the matching outcome among active, inactive

Some solved entries appear below for comparison.
O=C(c1ccc(F)cc1)C1CCN(CCn2c(=O)[nH]c3ccccc3c2=O)CC1
inactive
Cc1oncc1C(=O)Nc1ccc(C(F)(F)F)cc1
inactive
Cc1cc(N)c2ccccc2[n+]1CCCCCCCCCC[n+]1c(C)cc(N)c2ccccc21
active
COc1cc2c3cc1Oc1cc(ccc1O)C[C@@H]1c4c(cc(OC)c(O)c4Oc4ccc(cc4)C[C@@H]3N(C)CC2)CC[N+]1(C)C
inactive

## Input // return assay outcome for "CCOC(=O)[C@H](CCc1ccccc1)N[C@@H](C)C(=O)N1CCC[C@H]1C(=O)O"
## Output active

## Input Kindly provide the recorded test outcome for the following compound: "Nc1ccc(S(=O)(=O)Nc2ccccn2)cc1"
## Output inactive
